Entries and their Kd values follow.
assay system: Smurf1 WW2 domain
Sequence (Q9HCE7 whole entry, the tested form may be a part): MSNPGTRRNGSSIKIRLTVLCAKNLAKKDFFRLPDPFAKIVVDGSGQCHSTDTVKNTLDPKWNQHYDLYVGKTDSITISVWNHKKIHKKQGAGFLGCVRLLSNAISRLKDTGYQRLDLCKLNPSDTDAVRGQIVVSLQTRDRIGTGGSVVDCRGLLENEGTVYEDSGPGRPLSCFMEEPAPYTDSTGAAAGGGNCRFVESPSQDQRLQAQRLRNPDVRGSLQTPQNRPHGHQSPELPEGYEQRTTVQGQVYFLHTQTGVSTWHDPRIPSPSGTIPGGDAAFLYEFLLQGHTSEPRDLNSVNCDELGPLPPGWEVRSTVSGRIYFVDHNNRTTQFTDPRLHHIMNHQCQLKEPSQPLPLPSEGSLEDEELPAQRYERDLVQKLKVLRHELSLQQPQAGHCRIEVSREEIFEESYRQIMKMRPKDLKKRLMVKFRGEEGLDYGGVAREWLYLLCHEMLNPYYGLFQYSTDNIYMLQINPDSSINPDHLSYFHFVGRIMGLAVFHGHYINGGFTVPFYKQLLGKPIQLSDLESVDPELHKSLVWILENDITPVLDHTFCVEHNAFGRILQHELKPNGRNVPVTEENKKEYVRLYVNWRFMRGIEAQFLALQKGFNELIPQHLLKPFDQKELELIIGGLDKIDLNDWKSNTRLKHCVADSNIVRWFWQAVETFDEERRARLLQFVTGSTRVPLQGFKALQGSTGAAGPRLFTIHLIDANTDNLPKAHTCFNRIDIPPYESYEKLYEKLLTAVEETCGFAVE
experimental protocol: ITC
Where no end group is shown, it is not given here. [ ]: non-standard residue; d: D form. pT = C[C@@H](OP(=O)(O)O)[C@H](N)C(=O)O

{"columns": ["binder", "readout units", "Kd"],
 "data": [
  ["IPE[pT]PPPGYLSED [Smad3 pT-PY motif peptide (phosphothreonine)]", "µM", 36],
  ["PADTPPPAYLPPE [Smad1 T-PY motif peptide]", "µM", 32]
]}
